# System: Mycosphaerella graminicola (Septoria tritici)
# method: Mycosphaerella graminicola (Septoria tritici)/liquid culture (Septoria blotch)
# Type: cell-based
# condition details: Zymoseptoria tritici, liquid culture, PDB, inhibition of growth determined photometrically 4-5 days after application, read-out: disease control
endpoint label: inhibition of growth at 20 ppm

smi | assayed target | assay value
OB1OCc2cc(Cl)c(O)c(Cl)c21 | Mycosphaerella graminicola (Septoria tritici) | ≥ 80%
OB1OCc2cc(Cl)c(O)cc21 | Mycosphaerella graminicola (Septoria tritici) | ≥ 80%
CCOc1c(Cl)cc2c(c1Cl)B(O)OC2 | Mycosphaerella graminicola (Septoria tritici) | ≥ 80%
CCOc1cc2c(cc1C)COB2O | Mycosphaerella graminicola (Septoria tritici) | ≥ 80%
CCOc1cc2c(cc1Cl)COB2O | Mycosphaerella graminicola (Septoria tritici) | ≥ 80%
COc1cc(Cl)cc2c1B(O)OC2 | Mycosphaerella graminicola (Septoria tritici) | ≥ 80%
OB1OCc2cc3c(cc21)OC(F)(F)O3 | Mycosphaerella graminicola (Septoria tritici) | ≥ 80%
COc1cc2c(cc1Cl)COB2O | Mycosphaerella graminicola (Septoria tritici) | ≥ 80%

Entry source: patent US10040806B2
